Values were extracted from the supplement of paper PMC10598134.

Assay: collision cross section of modified peptide (TIMS, N2, iRT-aligned); higher = larger / more extended gas-phase ion
Conditions: charge state: 3; modification: HexNAc (ST)
Rule: collision cross section under 500 Å² gives f, otherwise t.

Lookup: Threshold query (collision cross section >= 500 Å²) on SSDLTDRVK [_S(HexNAc (ST))SDLTDRVK_]
Found: f

Lookup: Given the entry SAGSVESPSVSSTHR [_SAGSVESPSVSST(HexNAc (ST))HR_] , answer whether its collision cross section meets or surpasses 500 Å².
Found: f

Lookup: I'd appreciate it if you could say whether DFSLTSSSQTPGATK [_DFS(HexNAc (ST))LTSSSQTPGATK_] has collision cross section at least equal to 500 Å².
Found: t

Lookup: Determine whether this sequence has collision cross section no lower than 500 Å²: TTLTSDESVKDHTTAGR [_TTLTS(HexNAc (ST))DESVKDHTTAGR_]
Found: t
